Reference source: patent US7550427B2

Extrapolated long half life clearance phase for assorted substances
procedure.summary: Allometric extrapolation of clearance to humans
Assay type: in vivo
setup.conditions: 70 Kg human, allometric extrapolation from mice and rabbits
Where no end group is shown, it is not given here.
Could you give me the number in h? Just the number is fine.

Study these solved cases before continuing.
5 × PEG5-DX-890: modified DX-890 with five attached 5 kDa PEG moieties (mPEG-SPA) (EACNLPIVRGPCIAFFPRWAFDAVKGKCVLFPYGGCQGNGNKFYSEKECREYCGVP; not fully specified; cysteine pairing not given here; also: five attached 5 kDa PEG moieties (mPEG-SPA)) : 330
DX-1000: a human plasmin inhibitor, a Kunitz domain with three available lysines (SEQ ID NO:25) (EAMHSFCAFKAETGPCRARFDRWFFNIFTRQCEEFIYGGCEGNQNRFESLEECKKMCTRD; Synthetically generated peptide) : 1.7
DX-890: 56-amino-acid Kunitz domain (SEQ ID NO:23) derived from ITI-D2; inhibitor of human neutrophil elastase (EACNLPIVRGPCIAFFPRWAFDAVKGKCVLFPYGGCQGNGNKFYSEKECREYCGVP; Synthetically generated peptide) : 8.4

# next substance below
## Input State the recorded Extrapolated long half life clearance phase for this entry: 4 × PEG5-DX-1000: DX-1000 with four attached 5 kDa PEG moieties (4×5 kDa PEG/peptide) (MHSFCAFKAETGPCRARFDRWFFNIFTRQCEEFIYGGCEGNQNRFESLEECKKMCTRD; not fully specified; cysteine pairing not given here; also: four attached 5 kDa PEG moieties (4×5 kDa PEG/peptide))
## Output 210
